Target: Estrogen receptor (Homo sapiens) (UniProt P03372)
Sequence (P03372 whole entry, looked up): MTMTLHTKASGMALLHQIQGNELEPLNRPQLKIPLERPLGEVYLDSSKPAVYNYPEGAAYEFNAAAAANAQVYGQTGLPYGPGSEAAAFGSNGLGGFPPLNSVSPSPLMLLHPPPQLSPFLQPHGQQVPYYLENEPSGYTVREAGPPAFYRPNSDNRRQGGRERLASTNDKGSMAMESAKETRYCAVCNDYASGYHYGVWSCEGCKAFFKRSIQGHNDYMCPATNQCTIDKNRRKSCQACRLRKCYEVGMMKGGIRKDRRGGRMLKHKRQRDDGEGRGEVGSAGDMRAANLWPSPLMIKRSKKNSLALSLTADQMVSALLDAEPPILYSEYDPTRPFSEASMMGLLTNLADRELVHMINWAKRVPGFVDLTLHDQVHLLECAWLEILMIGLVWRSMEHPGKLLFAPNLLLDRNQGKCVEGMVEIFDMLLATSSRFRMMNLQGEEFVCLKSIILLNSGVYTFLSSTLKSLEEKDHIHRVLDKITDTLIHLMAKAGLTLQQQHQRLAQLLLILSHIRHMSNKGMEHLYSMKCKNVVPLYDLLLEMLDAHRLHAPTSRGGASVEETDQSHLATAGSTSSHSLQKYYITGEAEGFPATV
Experiment: qHTS assay for small molecule agonists of estrogen receptor alpha signaling (AID 588514); note: nearly all actives have a fitted effect of over 70% in size
Conditions: ER-alpha-UAS-bla HEK293, beta-lactamase ratio, 18 h; series mostly up to 76.8 µM
Inconclusive results are not listed. The source made the active and inactive calls. Calls come from the whole dose curve.
Readout Kind: outcome

- CCCCCCCC/C=C\CCCCCCCC(=O)N(CCO)CCO: inactive
- CC(/C=C/C=C(C)/C=C/C(=O)O)=C\C=C\C=C(C)\C=C\C=C(C)\C=C\C(=O)O: inactive
- CCCCNCC: inactive
- CCc1ccc(C(c2ccc(CC)cc2)C(Cl)Cl)cc1: inactive
- CCCCCCN: inactive
- NC(=O)Nc1nc2ccccc2[nH]1: inactive
- Oc1cc(Cl)cc(Cl)c1Cl: inactive
